- method: brain penetration in mouse brain metastatic tumor model (LC-MS, MALDI IMS)
- Type: in vivo, mice
- experimental-parameters: female, CrTac:NCr-Foxnlnu, mouse, oral; Control mice; from bulk brain homogenate and terminal plasma free concentrations
attribute-measured: Kp uu at 2 h

# molecular-string, attribute-measured, observed
measured = [
    ("NC(=O)c1cccc2cn(-c3ccc([C@@H]4CCCNC4)cc3)nc12", "Kp uu at 2 h", 0.18),
]

---

- System: P-gp (Mdr1-a) and BCRP (ABCG2)
- method: in vivo
- experimental-parameters: male, rat, brain / plasma, intravenous, Brain:plasma (Kp) ratio, P-gp/BCRP double knock-out rat
attribute-measured: Kp

# molecule, observed
rows = [
    ("NC(=O)c1cccc2cn(-c3ccc([C@@H]4CCCNC4)cc3)nc12 [niraparib]", 6.3),
]
